- experiment: total protein half-life in vivo (active degradation + dilution); higher = more stable protein
- conditionsUsed: wild type E. coli NCM3722; growth: P-lim chemostat; doubling time 12 h
Outcome label depends on total protein half-life in vivo relative to 10 h: at/above gives criterion met, below gives criterion not met.

Examples with answers:
{"columns": ["sequenceChain", "classAssignment"],
 "data": [
  ["MRLDKFIAQQLGVSRAIAGREIRGNRVTVDGEIVRNAAFKLLPEHDVAYDGNPLAQQHGPRYFMLNKPQGYVCSTDDPDHPTVLYFLDEPVAWKLHAAGRLDIDTTGLVLMTDDGQWSHRITSPRHHCEKTYLVTLESPVADDTAEQFAKGVQLHNEKDLTKPAVLEVITPTQVRLTISEGRYHQVKRMFAAVGNHVVELHRERIGGITLDADLAPGEYRPLTEEEIASVV [P0AA43]", "criterion not met"],
  ["MIKQRTLKRIVQATGVGLHTGKKVTLTLRPAPANTGVIYRRTDLNPPVDFPADAKSVRDTMLCTCLVNEHDVRISTVEHLNAALAGLGIDNIVIEVNAPEIPIMDGSAAPFVYLLLDAGIDELNCAKKFVRIKETVRVEDGDKWAEFKPYNGFSLDFTIDFNHPAIDSSNQRYAMNFSADAFMRQISRARTFGFMRDIEYLQSRGLCLGGSFDCAIVVDDYRVLNEDGLRFEDEFVRHKMLDAIGDLFMCGHNIIGAFTAYKSGHALNNKLLQAVLAKQEAWEYVTFQDDAELPLAFKAPSAVLA [P0A725]", "criterion not met"],
  ["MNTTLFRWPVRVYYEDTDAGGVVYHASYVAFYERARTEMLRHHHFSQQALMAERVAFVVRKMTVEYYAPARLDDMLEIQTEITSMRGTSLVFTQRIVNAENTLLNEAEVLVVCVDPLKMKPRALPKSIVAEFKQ [P0A8Z3]", "criterion met"],
  ["MLNKLSLLLKDAGISLTDHQKNQLIAYVNMLHKWNKAYNLTSVRDPNEMLVRHILDSIVVAPYLQGERFIDVGTGPGLPGIPLSIVRPEAHFTLLDSLGKRVRFLRQVQHELKLENIEPVQSRVEEFPSEPPFDGVISRAFASLNDMVSWCHHLPGEQGRFYALKGQMPEDEIALLPEEYQVESVVKLQVPALDGERHLVVIKANKI [P0A6U5]", "criterion met"]
]}

Note: attention shifts to another entry.
Has MSAQVSLELHHRISQFLFHEASLLDDWKFRDWLAQLDEEIRYTMRTTVNAQTRDRRKGVQPPTTWIFNDTKDQLERRIARLETGMAWAEEPPSRTRHLISNCQISETDIPNVFAVRVNYLLYRAQKERDETFYVGTRFDKVRRLEDDNWRLLERDIVLDQAVITSHNLSVLF a recorded total protein half-life in vivo greater than or equal to 10 h?
criterion not met

----------
- experiment: total protein half-life in vivo (active degradation + dilution); higher = more stable protein
- conditionsUsed: wild type E. coli NCM3722; growth: C-lim chemostat; doubling time 3 h
Reported total protein half-life in vivo values follow for various sequences
Give just the number in h; leave the unit off.

{"columns": ["sequenceChain", "endpointName", "dataValue"],
 "data": [
  ["MSKIKGNVKWFNESKGFGFITPEDGSKDVFVHFSAIQTNGFKTLAEGQRVEFEITNGAKGPSAANVIAL [P0A972]", "total protein half-life in vivo", 2.16]
]}

Please indicate total protein half-life in vivo recorded for MLARGKTNLKIEEIRMHKHHEIHRVKPLMPALCRIRQGKKVINWETHTLTVDNNQIILFPCGYEFYIENYPEAGLYLAEMLYLPIDLIESFQKLYTVTDQIRNKTSFFLPQNPELIYCWEQLKTSVSRGFSTKIQEHLAMGVLLSLGVNHVNHLLLSYSKQSLISRCYNLLLSEPGTKWTANKVARYLYISVSTLHRRLASEGVSFQSILDDVRLNNALSAIQTTVKPISEIARENGYKCPSRFTERFHNRFNITPREIRKASRE
2

----------
Reported total protein half-life in vivo values follow for various sequences
- experiment: total protein half-life in vivo (active degradation + dilution); higher = more stable protein
- conditionsUsed: wild type E. coli NCM3722; growth: P-lim chemostat; doubling time 12 h
Give just the number in h; leave the unit off.

The following sequences have reported results that may help.
{"columns": ["sequenceChain", "units", "total protein half-life in vivo"],
 "data": [
  ["MKKTAAIISACMLTFALSACSGSNYVMHTNDGRTIVSDGKPQTDNDTGMISYKDANGNKQQINRTDVKEMVELDQ", "h", 11.1],
  ["MSKPIVMERGVKYRDADKMALIPVKNVATEREALLRKPEWMKIKLPADSTRIQGIKAAMRKNGLHSVCEEASCPNLAECFNHGTATFMILGAICTRRCPFCDVAHGRPVAPDANEPVKLAQTIADMALRYVVITSVDRDDLRDGGAQHFADCITAIREKSPQIKIETLVPDFRGRMDRALDILTATPPDVFNHNLENVPRIYRQVRPGADYNWSLKLLERFKEAHPEIPTKSGLMVGLGETNEEIIEVMRDLRRHGVTMLTLGQYLQPSRHHLPVQRYVSPDEFDEMKAEALAMGFTHAACGPFVRSSYHADLQAKGMEVK", "h", 3.3]
]}

Continue with the sequence presented below.
Please indicate total protein half-life in vivo recorded for MSWISPELIEILLTILKAVVILLVVVTCGAFMSFGERRLLGLFQNRYGPNRVGWGGSLQLVADMIKMFFKEDWIPKFSDRVIFTLAPMIAFTSLLLAFAIVPVSPGWVVADLNIGILFFLMMAGLAVYAVLFAGWSSNNKYSLLGAMRASAQTLSYEVFLGLSLMGVVAQAGSFNMTDIVNSQAHVWNVIPQFFGFITFAIAGVAVCHRHPFDQPEAEQELADGYHIEYSGMKFGLFFVGEYIGIVTISALMVTLFFGGWQGPLLPPFIWFALKTAFFMMMFILIRASLPRPRYDQVMSFGWKICLPLTLINLLVTAAVILWQAQ [P0AFD4]
13.1

----------
- experiment: total protein half-life in vivo (active degradation + dilution); higher = more stable protein
- conditionsUsed: E. coli NCM3722 delta-smpB; growth: N-lim chemostat; doubling time 6 h
endpointName: total protein half-life in vivo (h)
Give just the number in h; leave the unit off.

The following sequences have reported results that may help.
{"columns": ["sequenceChain", "units", "total protein half-life in vivo"],
 "data": [
  ["MRVLIVKTSSMGDVLHTLPALTDAQQAIPGIKFDWVVEEGFAQIPSWHAAVERVIPVAIRRWRKAWFSAPIKAERKAFREALQAENYDAVIDAQGLVKSAALVTRLAHGVKHGMDWQTAREPLASLFYNRKHHIAKQQHAVERTRELFAKSLGYSKPQTQGDYAIAQHFLTNLPTDAGEYAVFLHATTRDDKHWPEEHWRELIGLLADSGIRIKLPWGAPHEEERAKRLAEGFAYVEVLPKMSLEGVARVLAGAKFVVSVDTGLSHLTAALDRPNITVYGPTDPGLIGGYGKNQMVCRAPRENLINLNSQAVLEKLSSL", "h", 5.74],
  ["MSKRYFVTGTDTEVGKTVASCALLQAAKAAGYRTAGYKPVASGSEKTPEGLRNSDALALQRNSSLQLDYATVNPYTFAEPTSPHIISAQEGRPIESLVMSAGLRALEQQADWVLVEGAGGWFTPLSDTFTFADWVTQEQLPVILVVGVKLGCINHAMLTAQVIQHAGLTLAGWVANDVTPPGKRHAEYMTTLTRMIPAPLLGEIPWLAENPENAATGKYINLALL", "h", 4.64]
]}

Please indicate total protein half-life in vivo recorded for MSEPLDLNQLAQKIKQWGLELGFQQVGITDTDLSESEPKLQAWLDKQYHGEMDWMARHGMLRARPHELLPGTLRVISVRMNYLPANAAFASTLKNPKLGYVSRYALGRDYHKLLRNRLKKLGEMIQQHCVSLNFRPFVDSAPILERPLAEKAGLGWTGKHSLILNREAGSFFFLGELLVDIPLPVDQPVEEGCGKCVACMTICPTGAIVEPYTVDARRCISYLTIELEGAIPEELRPLMGNRIYGCDDCQLICPWNRYSQLTTEEDFSPRKPLHAPELIELFAWSEEKFLKVTEGSAIRRIGHLRWLRNIAVALGNAPWDETILTALESRKGEHPLLDEHIAWAIAQQIERRNACIVEVQLPKKQRLVRVIEKGLPRDA
1.41

----------
Reported total protein half-life in vivo values follow for various sequences
- experiment: total protein half-life in vivo (active degradation + dilution); higher = more stable protein
- conditionsUsed: E. coli NCM3722 delta-smpB; growth: N-lim chemostat; doubling time 6 h
Could you write the number and then its unit?

{"columns": ["sequenceChain", "total protein half-life in vivo"],
 "data": [
  ["MENQPKLNSSKEVIAFLAERFPHCFSAEGEARPLKIGIFQDLVDRVAGEMNLSKTQLRSALRLYTSSWRYLYGVKPGATRVDLDGNPCGELDEQHVEHARKQLEEAKARVQAQRAEQQAKKREAAATAGEKEDAPRRERKPRPTTPRRKEGAERKPRAQKPVEKAPKTVKAPREEQHTPVSDISALTVGQALKVKAGQNAMDATVLEITKDGVRVQLNSGMSLIVRAEHLVF", "3.13 h"]
]}

Please indicate total protein half-life in vivo recorded for MATAKKITIHDVALAAGVSVSTVSLVLSGKGRISTATGERVNAAIEELGFVRNRQASALRGGQSGVIGLIVRDLSAPFYAELTAGLTEALEAQGRMVFLLHGGKDGEQLAQRFSLLLNQGVDGVVIAGAAGSSDDLRRMAEEKAIPVIFASRASYLDDVDTVRPDNMQAAQLLTEHLIRNGHQRIAWLGGQSSSLTRAERVGGYCATLLKFGLPFHSDWVLECTSSQKQAAEAITALLRHNPTISAVVCYNETIAMGAWFGLLKAGRQSGESGVDRYFEQQVSLAAFTDATPTTLDDIPVTWASTPARELGITLADRMMQKITHEETHSRNLIIPARLIAAK
4.45 h
